- Test system: MCF7
- method description: Cytotoxicity against human MCF7 cells after 48 hrs by MTT method
- Format: functional, cell-based
- assay context: MCF7, 48 h
pIC50: −log10 of the molar value.
Known pIC50 of a selection of compounds
recorded endpoint: pIC50

INSERT INTO assay_data (compound, system, recorded_endpoint, relation_symbol, value_reported) VALUES
  ('C=C1[C@H]2C[C@]3(C(=C[C@@H]2O)[C@@]24CO[C@]3(O)[C@@H](O)[C@@H]2C(C)(C)CC[C@@H]4OC(C)=O)[C@@H]1O [ISOADENOLIN K]', 'MCF7', 'pIC50', '=', 5.52),
  ('C=C1C(=O)[C@]23[C@H](O)[C@H]1CC[C@H]2[C@@]12[C@H](OC)O[C@]3(O)[C@@H](O)[C@@H]1C(C)(C)CC[C@@H]2OC(C)=O [ISOADENOLIN H]', 'MCF7', 'pIC50', '<', 5.00),
  ('C=C1C(=O)[C@@]23[C@@H]4OC5O[C@@]2(O)[C@@H](O)[C@@H]2C(C)(C)CC[C@@H](O)[C@]52[C@@H]3CC[C@@H]14 [PONICIDIN]', 'MCF7', 'pIC50', '=', 4.79),
  ('C=C1C(=O)[C@]23[C@H](O)[C@H]1CC[C@H]2[C@@]12CO[C@@]3(O)[C@@H](O)[C@@H]1C(C)(C)CC[C@@H]2OC(C)=O [LASIOKAURIN]', 'MCF7', 'pIC50', '=', 5.28),
  ('C=C1[C@@H](O)[C@]23[C@H](O)[C@H]1CC[C@H]2[C@@]12C(=O)O[C@]3(O)[C@@H](O)[C@@H]1C(C)(C)CC[C@@H]2OC(C)=O', 'MCF7', 'pIC50', '<', 5.00);

---

Documented pIC50 across a set of molecules
- System: MCF7
- method description: Cytotoxicity against human MCF7 cells after 48 hrs by MTT method
- Assay type: functional, cell-based
- assay context: MCF7, 48 h
pIC50: −log10 of the molar value.
recorded endpoint: pIC50

INSERT INTO results (molecule, recorded_endpoint, value_reported) VALUES
  ('C=C1C(=O)[C@]23[C@H](O)[C@H]1CC[C@H]2[C@@]12[C@H](O)O[C@]3(O)[C@@H](O)[C@@H]1C(C)(C)CC[C@@H]2OC(C)=O [XEROPHILUSIN J]', 'pIC50', 5.01),
  ('C=C1C(=O)[C@]23[C@H](O)[C@H]1CC[C@H]2[C@]12CCCC(C)(C)[C@H]1[C@H](O)[C@]3(O)OC2=O [XEROPHILUSIN N]', 'pIC50', 5.10),
  ('C=C1[C@@H](O)[C@@]23[C@H]4O[C@H]5O[C@]2(O)[C@@H](OC(C)=O)[C@@H]2C(C)(C)CCC[C@@]52[C@@H]3[C@@H](O)C[C@@H]14 [ISOADENOLIN A]', 'pIC50', '< 5.00'),
  ('C=C1C(=O)[C@@]23[C@H]4O[C@H]5O[C@]2(O)[C@@H](O)[C@@H]2C(C)(C)CC[C@H](OC(C)=O)[C@]52[C@@H]3CC[C@@H]14 [ISOADENOLIN B]', 'pIC50', '< 5.00'),
  ('C=C1[C@@H](O)[C@]23[C@H](O)[C@H]1C[C@H](OC(C)=O)[C@H]2[C@@]12CCCC(C)(C)[C@H]1[C@H](O)[C@@]3(O)O[C@@H]2OC [ISOADENOLIN G]', 'pIC50', '< 5.00'),
  ('C=C1[C@@H](O)[C@]23[C@H](O)[C@H]1C[C@H](O)[C@H]2[C@@]12CCCC(C)(C)[C@H]1[C@H](OC(C)=O)[C@@]3(O)O[C@@H]2OC [ISOADENOLIN F]', 'pIC50', '< 5.00'),
  ('COC[C@@H]1C(=O)[C@]23[C@H](O)[C@H]1C[C@H](O)[C@H]2[C@@]12CCCC(C)(C)[C@H]1[C@H](O)[C@@]3(O)O[C@@H]2OC [ISOADENOLIN D]', 'pIC50', '< 5.00');
